System: Staphylococcus aureus
Assay: Antibacterial activity against Staphylococcus aureus 10B
Type: functional
The entries below are paired with their reported MIC.

- Compound: "COC1/C=C/OC2(C)Oc3c(C)c(O)c4c(O)c(c(N5CCC(CO)CC5)c(O)c4c3C2=O)NC(=O)/C(C)=C\\C=C\\C(C)C(O)C(C)C(O)C(C)C(OC(C)=O)C1C (centres undefined)"
  MIC: "< 0.1 µg/mL"
- Compound: "COC1/C=C/OC2(C)Oc3c(C)c(O)c4c(O)c(c(N5CCC(=O)CC5)c(O)c4c3C2=O)NC(=O)/C(C)=C\\C=C\\C(C)C(O)C(C)C(O)C(C)C(OC(C)=O)C1C (centres undefined)"
  MIC: "< 0.1 µg/mL"
- Compound: "COC1/C=C/OC2(C)Oc3c(C)c(O)c4c(O)c(c(N5CCC(C(C)C)CC5)c(O)c4c3C2=O)NC(=O)/C(C)=C\\C=C\\C(C)C(O)C(C)C(O)C(C)C(OC(C)=O)C1C (centres undefined)"
  MIC: "< 0.1 µg/mL"
- Compound: "COC1/C=C/OC2(C)Oc3c(C)c(O)c4c(O)c(c(C=O)c(O)c4c3C2=O)NC(=O)/C(C)=C\\C=C\\C(C)C(O)C(C)C(O)C(C)C(OC(C)=O)C1C (centres undefined)"
  MIC: "0.01 µg/mL"

Q. Could you tell me which MIC is on file for COC1/C=C/OC2(C)Oc3c(C)c(O)c4c(O)c(c(N5CCC(O)CC5)c(O)c4c3C2=O)NC(=O)/C(C)=C\C=C\C(C)C(O)C(C)C(O)C(C)C(OC(C)=O)C1C (centres undefined) ?
A. < 0.1 µg/mL

Q. Could you share which MIC value was measured for COC1/C=C/OC2(C)Oc3c(C)c(O)c4c(O)c(c(N5CCC(C(C)(C)C)CC5)c(O)c4c3C2=O)NC(=O)/C(C)=C\C=C\C(C)C(O)C(C)C(O)C(C)C(OC(C)=O)C1C (centres undefined) ?
A. < 0.1 µg/mL

Q. Could you share which MIC value was measured for COC1/C=C/OC2(C)Oc3c(C)c(O)c4c(O)c(c(N5CCN(Cc6c(C)cc(C)cc6C)CC5)c(O)c4c3C2=O)NC(=O)/C(C)=C\C=C\C(C)C(O)C(C)C(O)C(C)C(OC(C)=O)C1C (centres undefined) ?
A. 0.01 µg/mL

Q. Item COC1/C=C/OC2(C)Oc3c(C)c(O)c4c(O)c(c(N5CCC(C)CC5)c(O)c4c3C2=O)NC(=O)/C(C)=C\C=C\C(C)C(O)C(C)C(O)C(C)C(OC(C)=O)C1C (centres undefined) has what recorded MIC?
A. < 0.1 µg/mL

Q. Consider the compound shown here: CCOC(=O)C1CCN(c2c3c(O)c4c(O)c(C)c5c(c4c2O)C(=O)C(C)(O/C=C/C(OC)C(C)C(OC(C)=O)C(C)C(O)C(C)C(O)C(C)/C=C/C=C(/C)C(=O)N3)O5)CC1 (centres undefined) What is its recorded MIC?
A. < 0.1 µg/mL
